assay: Half life in Sprague-Dawley rat at 2 mg/kg, iv; format: ADME, organism-based; settings: in vivo
quantityMeasured: half-life (h)
One number for each entry, in h.

Lab note: CCc1cc2c(s1)CCN1Cc3c(OC)ccc(OC)c3CC21 (stereo unspecified) gave half-life of 10.8

* * *

assay: Tmax in Sprague-Dawley rat at 2 mg/kg, iv; format: ADME, organism-based; conditions: in vivo
quantityMeasured: Tmax (min)
Answers are plain numbers, in min.

Lab note: CCc1cc2c(s1)CCN1Cc3c(OC)ccc(OC)c3CC21 (stereo unspecified) gave Tmax of 15

* * *

Would you kindly list Activity for each of these compounds?
test system: L6; test: Inhibition of mitochondrial membranes potential in rat L6 cells assessed as mitochondrial membranes potential level at 20 uM incubated for 40 mins by JC1 dye staining based fluorescence assay (reference value: 100 +/- 2.8%); format: functional; parameters: scale not given: the % may be the effect or the level left
One number for each entry, in %.

I would be grateful if you could provide Activity for each of the following entries.
1. COc1ccc2cc3[n+](cc2c1OC)CCc1cc2c(cc1-3)OCO2.[Cl-] [BERBERINE CHLORIDE]
2. CCc1cc2c(s1)CCN1Cc3c(OC)ccc(OC)c3CC21 (centres undefined)
3. COc1ccc(OC)c2c1CC1c3cc(CC4CC4)sc3CCN1C2 (centres undefined)

output:
91.2
59.5
86.4

Lab note: COc1ccc(OC)c2c1CC1c3ccsc3CCN1C2 (centres undefined) gave Activity of 81.5
